- Test system: HuH-7 hepatoma cells
- Assay name: In vitro cell proliferation assay (CellTiter-Glo, CTG), HuH-7
- Format: cell-based
- Experimental context: Homo sapiens, Huh-7, 96 h, HuH-7 cells
Below, each entry is listed with its recorded pEC50.
Entry type: numeric. Quantity: pEC50, the -log10 of concentration in molar units.

Illustrative cases are given below, each with its answer.
Molecule	Assay system	Recorded value
COCCNc1cc(NC(=O)N2c3nc(C=O)ccc3C3(NC(=O)C4CCN(C)C4)CC2C3)ncc1C#N (stereo not shown)	HuH-7 hepatoma cells	7.40
CO[C@@H]1CCC[C@H]1Nc1cc(NC(=O)N2c3nc(C=O)c(CN4CCN(C)CC4=O)cc3C3CC2C3)ncc1C#N (relative stereo)	HuH-7 hepatoma cells	9.00
COCCNc1cc(NC(=O)N2c3nc(C=O)ccc3C3(NC(=O)c4cnn(C)c4)CC2C3)ncc1C#N	HuH-7 hepatoma cells	9.15
COC[C@@H](C)Nc1cc(NC(=O)N2c3nc(C=O)c(CN4CCN(C)CC4=O)cc3C3(F)CC2C3)ncc1C#N	HuH-7 hepatoma cells	8.23
COCCNc1cc(NC(=O)N2CCCc3cc(CN4CCN(C)CC4=O)c(C=O)nc32)ncc1C#N [Positive Control Compound, reference compound]	HuH-7 hepatoma cells	7.28

pEC50 reading for COCCNc1cc(NC(=O)N2c3nc(C=O)ccc3C3(F)CC2C3)ncc1C#N : 7.21

pEC50 reading for COCCNc1cc(NC(=O)N2c3nc(C=O)c(CN4CCN(C)CC4=O)cc3C3(F)CC2C3)ncc1C#N : 7.92

====

- Tested on: HuH-7 hepatoma cells
- Assay name: In vitro cell proliferation assay (CellTiter-Glo, CTG), HuH-7
- Type: cell-based
- Experimental context: Homo sapiens, Huh-7, 96 h, HuH-7 cells
Assay metric: pEC50
Entry type: numeric. Quantity: pEC50, the -log10 of concentration in molar units.

Illustrative cases are given below, each with its answer.
Compound	pEC50
CN1CCN(Cc2cc3c(nc2C=O)N(C(=O)Nc2cc(NC4CCOC4)c(C#N)cn2)C2CC3(F)C2)C(=O)C1 (stereo not shown)	7.70
COCCNc1cc(NC(=O)N2c3nc(C=O)ccc3C3(OCCN(C)C)CC2C3)ncc1C#N	9.70
COC[C@@H](C)Nc1cc(NC(=O)N2c3nc(C=O)c(CN4CCN(C)CC4=O)cc3C3CC2C3)ncc1C#N	8.77
COCCNc1cc(NC(=O)N2c3nc(C=O)c(CN4CCCCOC4=O)cc3C3(F)CC2C3)ncc1C#N	7.55
COCCNc1cc(NC(=O)N2c3nc(C=O)ccc3C3(OCCN4CCOCC4)CC2C3)ncc1C#N	8.00

Readout pEC50 for N#Cc1cnc(NC(=O)N2c3nc(C=O)ccc3C3(F)CC2C3)cc1N[C@@H]1CCC[C@H]1O (relative stereo) , test system HuH-7 hepatoma cells, was 7.62

Readout pEC50 for CCS(=O)(=O)NC12CC(C1)N(C(=O)Nc1cc(NCCOC)c(C#N)cn1)c1nc(C=O)ccc12 , test system HuH-7 hepatoma cells, was 7.72

====

- Tested on: HuH-7 hepatoma cells
- Assay name: In vitro cell proliferation assay (CellTiter-Glo, CTG), HuH-7
- Assay type: cell-based
- Experimental context: Homo sapiens, Huh-7, 96 h, HuH-7 cells
Rule for this label: fulfilled means EC50 is less than 20 nM; not fulfilled means EC50 is at least 20 nM.

Compound	Assay system	Group label
COCCNc1cc(NC(=O)N2c3nc(C=O)c(CN4CCN(C)CC4=O)cc3C3(O)CC2C3)ncc1C#N	HuH-7 hepatoma cells	not fulfilled
COCCNc1cc(NC(=O)N2c3nc(C=O)c(CN4CCOCC4=O)cc3C3CC2C3)ncc1C#N	HuH-7 hepatoma cells	fulfilled
COCCNc1cc(NC(=O)N2c3nc(C=O)ccc3C3(NC(=O)CN4CCCC4)CC2C3)ncc1C#N	HuH-7 hepatoma cells	fulfilled

Input: I wonder whether CO[C@@H]1CCC[C@H]1Nc1cc(NC(=O)N2c3nc(C=O)ccc3C3(NC(=O)CN(C)C)CC2C3)ncc1C#N (relative stereo) has EC50 below 20 nM. Can you tell?
Output: fulfilled

Input: I wonder whether COCCOc1cc(NC(=O)N2c3nc(C=O)c(CN4CCN(C)CC4=O)cc3C3CC2C3)ncc1C#N has EC50 below 20 nM. Can you tell?
Output: not fulfilled

Input: I wonder whether COCCNc1cc(NC(=O)N2c3nc(C=O)ccc3C3(NC(=O)C4CCN(C)CC4)CC2C3)ncc1C#N has EC50 below 20 nM. Can you tell?
Output: fulfilled

Input: I wonder whether COCCNc1cc(NC(=O)N2c3nc(C=O)c(CN4CCN(C)CC4=O)cc3C3CC2C3)ncc1C#N has EC50 below 20 nM. Can you tell?
Output: fulfilled

====

- System: HuH-7 hepatoma cells
- Assay name: In vitro cell proliferation assay (CellTiter-Glo, CTG), HuH-7
- Assay type: cell-based
- Experimental context: Homo sapiens, Huh-7, 96 h, HuH-7 cells
Assay metric: pEC50
Entry type: numeric. Quantity: pEC50, the -log10 of concentration in molar units.

Molecule	Assay metric	Recorded value
CN1CCN(Cc2cc3c(nc2C=O)N(C(=O)Nc2cc(NC4CCCC4O)c(C#N)cn2)C2CC3(F)C2)C(=O)C1 (stereo not drawn) [Compound 17]	pEC50	9.22
COCCOCCNc1cc(NC(=O)N2c3nc(C=O)ccc3C3(OC)CC2C3)ncc1C#N [Compound 22]	pEC50	6.90

pEC50 reading for COCCNc1cc(NC(=O)N2c3nc(C=O)c(CN4CCCCOC4=O)cc3C3CC2C3)ncc1C#N [Compound 28] : 8.16

pEC50 reading for COCCNc1cc(NC(=O)N2c3nc(C=O)ccc3C3(OCCOC)CC2C3)ncc1C#N [Compound 36] : 7.93

pEC50 reading for CO[C@@H]1CCC[C@H]1Nc1cc(NC(=O)N2c3nc(C=O)ccc3C3(F)CC2C3)ncc1C#N (relative stereo) [Compound 19] : 7.50

====

- Assay system: FGFR4 (Homo sapiens)
- Sequence (P22455 22-802): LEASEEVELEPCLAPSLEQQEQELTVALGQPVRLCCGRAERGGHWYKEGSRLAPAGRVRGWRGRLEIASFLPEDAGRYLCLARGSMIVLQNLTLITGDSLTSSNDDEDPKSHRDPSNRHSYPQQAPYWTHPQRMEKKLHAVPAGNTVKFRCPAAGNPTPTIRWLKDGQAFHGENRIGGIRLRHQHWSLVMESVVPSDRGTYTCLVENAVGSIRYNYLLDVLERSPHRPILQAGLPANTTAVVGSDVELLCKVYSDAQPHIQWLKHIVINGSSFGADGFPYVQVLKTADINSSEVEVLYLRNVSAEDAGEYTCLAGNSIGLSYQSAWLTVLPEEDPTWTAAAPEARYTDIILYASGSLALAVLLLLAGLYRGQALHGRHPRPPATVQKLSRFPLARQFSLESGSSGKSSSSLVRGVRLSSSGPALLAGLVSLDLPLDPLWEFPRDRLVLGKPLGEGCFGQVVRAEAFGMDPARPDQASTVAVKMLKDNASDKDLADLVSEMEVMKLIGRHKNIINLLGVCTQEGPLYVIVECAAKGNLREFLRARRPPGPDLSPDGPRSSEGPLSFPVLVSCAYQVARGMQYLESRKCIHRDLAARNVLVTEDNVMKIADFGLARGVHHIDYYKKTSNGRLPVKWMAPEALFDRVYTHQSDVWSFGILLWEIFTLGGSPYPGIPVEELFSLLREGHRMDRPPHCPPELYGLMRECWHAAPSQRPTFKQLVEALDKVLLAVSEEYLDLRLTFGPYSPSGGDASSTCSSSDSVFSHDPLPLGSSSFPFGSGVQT
- Assay name: In vitro biochemical kinase analysis of FGFR4 (HTRF KinEASE-TK)
- Experimental context: HTRF kinase assay
Below, each entry is listed with its recorded pIC50.
Entry type: numeric. Quantity: pIC50, the -log10 of concentration in molar units.

pIC50 reading for COCCNc1cc(NC(=O)N2c3nc(C=O)ccc3C3(OC)CC2C3)ncc1C#N : 8.80

pIC50 reading for COCCNc1cc(NC(=O)N2c3nc(C=O)c(CN4CCCCOC4=O)cc3C3CC2C3)ncc1C#N : 8.96

pIC50 reading for COCCNc1cc(NC(=O)N2c3nc(C=O)ccc3C3(OCC(=O)N4CCOCC4)CC2C3)ncc1C#N : 8.74

pIC50 reading for N#Cc1cnc(NC(=O)N2c3nc(C=O)ccc3C3(F)CC2C3)cc1N[C@@H]1CCC[C@H]1O (relative stereo) : 9.22

pIC50 reading for COCCNc1cc(NC(=O)N2c3nc(C=O)ccc3C3(NC(=O)C4CCN(C)C4)CC2C3)ncc1C#N (centres unmarked) : 8.47

====

- Test system: Hep 3B hepatoma cells
- Assay name: In vitro cell proliferation assay (CellTiter-Glo, CTG), Hep 3B
- Type: cell-based, human
- Experimental context: Hep 3B cells, 96 hours
- Protocol: In Vitro Cell Proliferation Assay of FGFR4 (CellTiter-Glo Luminescent Cell Viability Assay, CTG Assay) Hep 3B hepatoma cells were purchased from Cell Resource Center of Peking Union College, and HuH-7 hepatoma cells were purchased from Shanghai Biological Technology Co., Ltd. enzyme research. […] Data was read out by SoftMax Pro i3X Microplate Reader of MD, analyzed by the software GraphPad Prism 5.0, and S-shaped dose-response curve was drawn, then the EC50 values were calculated.
Assay metric: EC50 (nM)
Unit nM implied. Number only.

Readout EC50 for COC1CCCC1Nc1cc(NC(=O)N2c3nc(C=O)c(CN4CCN(C)CC4=O)cc3C3(F)CC2C3)ncc1C#N (single isomer, unassigned) [Compound 11-P2] , test system Hep 3B hepatoma cells, was 32.1

Readout EC50 for COC1CCCC1Nc1cc(NC(=O)N2c3nc(C=O)c(CN4CCN(C)CC4=O)cc3C3(F)CC2C3)ncc1C#N (single isomer, unassigned) [Compound 12-P2] , test system Hep 3B hepatoma cells, was 39

Readout EC50 for COC1CCCC1Nc1cc(NC(=O)N2c3nc(C=O)c(CN4CCN(C)CC4=O)cc3C3(F)CC2C3)ncc1C#N (single isomer, unassigned) [Compound 12-P1] , test system Hep 3B hepatoma cells, was 8.6

Readout EC50 for COC1CCCC1Nc1cc(NC(=O)N2c3nc(C=O)c(CN4CCN(C)CC4=O)cc3C3(F)CC2C3)ncc1C#N (single isomer, unassigned) [Compound 11-P1] , test system Hep 3B hepatoma cells, was 5.6

====

- Tested on: HuH-7 hepatoma cells
- Assay name: In vitro cell proliferation assay (CellTiter-Glo, CTG), HuH-7
- Type: cell-based
- Experimental context: Homo sapiens, Huh-7, 96 h, HuH-7 cells
Below, each entry is listed with its recorded pEC50.
Entry type: numeric. Quantity: pEC50, the -log10 of concentration in molar units.

Illustrative cases are given below, each with its answer.
COCCNc1cc(NC(=O)N2c3nc(C=O)c(CN4CCOCC4=O)cc3C3(F)CC2C3)ncc1C#N 7.13
COCCNc1cc(NC(=O)N2c3nc(C=O)ccc3C3(O)CC2C3)ncc1C#N 7.28
COCCNc1cc(NC(=O)N2c3nc(C=O)ccc3C3(OC)CC2C3)ncc1C#N 7.38
COCCNc1cc(NC(=O)N2c3nc(C=O)c(CN(C)C(=O)CN(C)C)cc3C3(F)CC2C3)ncc1C#N 7.55
CCc1cc2c(nc1C=O)N(C(=O)Nc1cc(NCCOC)c(C#N)cn1)C1CC2(F)C1 7.55

pEC50 reading for COCCOc1cc(NC(=O)N2c3nc(C=O)c(CN4CCN(C)CC4=O)cc3C3(F)CC2C3)ncc1C#N : 7.15

pEC50 reading for COCCNc1cc(NC(=O)N2c3nc(C=O)ccc3C3(NC(=O)CN(C)C)CC2C3)ncc1C#N : 9.10
